system: Dolichospermum flos-aquae; assay: Antialgal activity against Anabaena flos-aquae NIES 73 after 48 hrs by fluorophotometric method; format: functional, organism-based
metric: pIC50
pIC50 here: minus log base 10 of the concentration, concentration in moles per litre.

Would you please look over these solved cases?
O=c1c(O)c(-c2ccc(O)c(O)c2)oc2cc(O)cc(O)c12 :: 4.60
O=C(O)c1cc(O)c(O)c(O)c1 :: 4.48

Measured pIC50, O=C(O[C@@H]1[C@@H](OC(=O)c2cc(O)c(O)c(O)c2)[C@H](O)O[C@@H]2COC(=O)c3cc(O)c(O)c(O)c3-c3c(cc(O)c(O)c3O)C(=O)O[C@@H]12)c1cc(O)c(O)c(O)c1 : 5.02

Source of measurements: ChEMBL document CHEMBL1147318
